system: SF-268 CNS; assay: NCI-60 one-dose screen, 48 h; details: 10 µM unless noted
This is part of a sample that, as a whole, favours compounds with a hit. Of some 83,000 tested, about 20% had one in any assay. Active and inactive are the calls of the source. Rule for the calls: active = growth percent below 10; inactive = the rest.
Outcome codes: class 1 = active, class 0 = inactive

Compound | Category
CN[C@@H](C)C(=O)N[C@H]1CCS[C@H]2CC(C)(C)[C@@H](C(=O)N[C@H]3c4ccccc4C[C@H]3OCC#CC#CCO[C@@H]3Cc4ccccc4[C@@H]3NC(=O)[C@H]3N4C(=O)[C@@H](NC(=O)[C@H](C)NC)CCS[C@H]4CC3(C)C)N2C1=O | class 0
CCN1C(=O)/C(=C/C(=O)OC)S/C1=N\NC(=O)c1cc2ccc1/C=C\c1ccc(cc1)/C=C\2 | class 0
CC(=O)[C@@H]1CC[C@]2(C(N)=O)CC[C@]3(C)[C@H](CC[C@@H]4[C@@]5(C)CCCNC(C)(C)[C@@H]5CC[C@]43C)[C@@H]12 | class 0
C#Cc1cccc(NC(=O)Nc2cccc(NC(=O)CCl)c2)c1 | class 1
Cn1cc(-c2nc(-c3c[nH]c4c(Cl)nccc34)cs2)c2cc(Br)ccc21 | class 0
CC1=C(C(=O)/C=C/c2ccc(N(C)C)cc2)C(c2ccccc2)NC(=S)N1 (stereo not given) | class 0
O=C(/C=C/c1c(-c2ccc(Cl)cc2)nn(-c2ccccc2)c1C(F)(F)F)c1ccc(Cl)cc1 | class 0
COc1ccc(/C=C/C(=O)Nc2cc(/C=C\c3cc(OC)c(OC)c(OC)c3)cc(OC)c2OC)cc1OC | class 0
O=C(NNc1nc2c(F)cccc2n2cccc12)c1cnccn1 | class 0
NS(=O)(=O)c1ccc(CCn2c(SCC(=O)c3ccc(Cl)cc3)nc3ccccc3c2=O)cc1 | class 0
COc1ccc(C(=O)c2nc3ccccc3n2CC(=O)c2ccc(Cl)cc2)cc1 | class 0
CCOC(=O)c1cc(C(=O)c2ccc(Br)cc2)n2ccc(/C=C/c3cc[n+](CC(=O)c4ccc(OC)cc4)cc3)cc12 | class 0
Cc1cc(C)c(S(=O)(=O)Oc2ccccc2[N+](=O)[O-])c(C)c1 | class 0
O=C(CSc1nc2sc3c(c2c(=O)n1-c1ccc(Cl)cc1)CCCC3)Nc1nc(-c2cccc(Br)c2)cs1 | class 0
COc1cc2cc(CN3CCN(c4nccc(-c5ccc6ccccc6c5)n4)CC3)c(=O)[nH]c2cc1OC | class 0
Cc1ccccc1NS(=O)(=O)c1cccc(C(=O)Nc2ccc(Br)cc2)c1 | class 0
CCCCCCNC(=O)Oc1ccc(/C(=C(\C)c2ccccc2)c2ccc(OCCN3CCCCC3)cc2)cc1 | class 0
Cc1c2cc[nH]c(=O)c2c(C)c2c1[nH]c1cc(OCCN3CCN(C)CC3)ccc12 | class 0
CN(C)CCn1c2ccc(Br)cc2c2nc3ccccc3nc21 | class 0
Nc1nc(Nc2ccccc2SSc2ccccc2Nc2nc(N)nc(-c3ccc(C(F)(F)F)cc3)n2)nc(-c2ccc(C(F)(F)F)cc2)n1 | class 0
COc1ccc(-c2cnc3c(-c4cccc5cnccc45)cnn3c2)cc1 | class 0
O=C1Nc2cc(-c3cccc(O)c3)ccc2/C1=C/c1ccc[nH]1 | class 0
CCOc1cccc(-c2nc(N)nc(Nc3ccccc3SSc3ccccc3Nc3nc(N)nc(-c4cccc(OCC)c4)n3)n2)c1 | class 0
CCN(CC)CC[n+]1cc2cc(OC)c(OC)cc2c2ccc3cc4c(cc3c21)OCO4 | class 1
Nc1c(C(=O)Nc2cccc3cnccc23)sc2nc3c(cc12)CN(Cc1ccccc1)CC3 | class 0
Nc1n[nH]c2cccc(C#Cc3cccc(C(=O)Nc4cc(CN5CCOCC5)cc(C(F)(F)F)c4)c3)c12 | class 0
O=C(O)c1ccc2c(c1)C(=O)N(Cc1ccccc1)C2=O | class 0
COc1ccc(CC(C)=C(c2ccc(OCCN3CCCCCC3)cc2)c2ccc(OCCN3CCCCCC3)cc2)cc1 | class 1
COc1cc(C2C3CC4CCCC[C@H]4N3[C@@]3(C(=O)Nc4cc(Cl)ccc43)C2C(=O)c2nc3ccccc3[nH]2)cc(OC)c1OC (stereo not given in full) | class 0
O=Cc1ccc(-c2cn3ccnc3c(-c3ccc4ncn(Cc5ccccc5)c4c3)n2)cc1 | class 0
O=C(CNCCN1CCOCC1)N1c2cccc3cccc(c23)N(C(=O)CNCCN2CCOCC2)C1c1cn(-c2ccccc2)nc1-c1cccc([N+](=O)[O-])c1 | class 0
O=C(NO)c1ccc(-n2nc(-c3ccccc3)c3ccccc32)cc1 | class 0
COc1cc(/C(C)=C(\c2ccc(Cl)cc2)c2ccc(OCCN3CCCC3)cc2)ccc1F | class 0
O=S(=O)(NCCCNc1nccc(-c2c(-c3cccc(F)c3)nc3sccn23)n1)c1cccc2ccccc12 | class 0
Cc1ccc(-n2c3c(c(-c4ccccc4)c2-c2ccccc2)C2=NCCN2C=N3)cc1 | class 0
